- Target desc: Gamma-secretase (Homo sapiens) (UniProt Q96BI3+Q9NZ42+Q8WW43+P49768+Q92542+P49810)
- Method summary: Selectivity ratio of IC50 for modulation of gamma-secretase (unknown origin) assessed as inhibition of amyloid beta 40 production to IC50 for modulation of gamma-secretase (unknown origin) assessed as inhibition of amyloid beta 42 production
- Assay type: protein-complex assay
Measurement name: Ratio IC50

Tell me the measured Ratio IC50 of CC(=O)O[C@@H]([C@@H]1C[C@@H](C)[C@H]2[C@H](O1)[C@H](O)[C@@]1(C)[C@@H]3CC[C@H]4C(C)(C)[C@@H](OC(=O)C5CCCO5)CC[C@@]45C[C@@]35CC[C@]21C)C(C)(C)O (mixture of isomers) , please. > 23

Repeat for the following compound: CC(=O)O[C@@H]([C@@H]1C[C@@H](C)[C@H]2[C@H](O1)[C@H](O)[C@@]1(C)[C@@H]3CC[C@H]4C(C)(C)[C@@H](OC(=O)NCc5ccccn5)CC[C@@]45C[C@@]35CC[C@]21C)C(C)(C)O > 35

Now the same for CC(=O)O[C@@H]([C@@H]1C[C@@H](C)[C@H]2[C@H](O1)[C@H](O)[C@@]1(C)[C@@H]3CC[C@H]4C(C)(C)[C@@H](OC(=O)NC5CCC5)CC[C@@]45C[C@@]35CC[C@]21C)C(C)(C)O > 42

Next entry: CC(=O)O[C@@H]([C@@H]1C[C@@H](C)[C@H]2[C@H](O1)[C@H](O)[C@@]1(C)[C@@H]3CC[C@H]4C(C)(C)[C@@H](OC(=O)c5ccccn5)CC[C@@]45C[C@@]35CC[C@]21C)C(C)(C)O 25

---

- Target desc: Gamma-secretase
- Method summary: Modulation of gamma-secretase (unknown origin) assessed as inhibition of amyloid beta 42 production
- Assay type: protein-complex assay, Homo sapiens
Measurement name: pIC50
For clarity, pIC50 is expressed as the negative log10 of concentration in mol/L.

// query pIC50 value for entry CC(=O)O[C@@H]([C@@H]1C[C@@H](C)[C@H]2[C@H](O1)[C@H](O)[C@@]1(C)[C@@H]3CC[C@H]4C(C)(C)[C@@H](OC(=O)NC5COC5)CC[C@@]45C[C@@]35CC[C@]21C)C(C)(C)O 6.35

Can you handle CC(=O)O[C@@H]([C@@H]1C[C@@H](C)[C@H]2[C@H](O1)[C@H](O)[C@@]1(C)[C@@H]3CC[C@H]4C(C)(C)[C@@H](OC(=O)C5CCN5)CC[C@@]45C[C@@]35CC[C@]21C)C(C)(C)O (mixture of isomers) next? 6.66

---

Assignment: determine reported pIC50 for the given compounds.
- Target desc: Gamma-secretase
- Method summary: Modulation of gamma-secretase (unknown origin) assessed as inhibition of amyloid beta 42 production
- Format: protein-complex assay, Homo sapiens
// scale note: pIC50 = -log10(conc_M); give the bare number

// returns reported pIC50 for input CC(=O)O[C@@H]([C@@H]1C[C@@H](C)[C@H]2[C@H](O1)[C@H](O)[C@@]1(C)[C@@H]3CC[C@H]4C(C)(C)[C@@H](OC(=O)NCc5ccccn5)CC[C@@]45C[C@@]35CC[C@]21C)C(C)(C)O 6.25

Same lookup for CC(=O)O[C@@H]([C@@H]1C[C@@H](C)C2=C(O1)[C@H](O)[C@@]1(C)[C@@H]3CC[C@H]4C(C)(C)[C@@H](O[C@@H]5OC[C@@H](O)[C@H](O)[C@H]5O)CC[C@@]45C[C@@]35CC[C@]21C)C(C)(C)O , please. 7.00

Another compound: CC(=O)O[C@@H]([C@@H]1C[C@@H](C)[C@H]2[C@H](O1)[C@H](O)[C@@]1(C)[C@@H]3CC[C@H]4C(C)(C)[C@@H](OC(=O)C5CNC5)CC[C@@]45C[C@@]35CC[C@]21C)C(C)(C)O 7.26

Now the same for CC(=O)O[C@@H]([C@@H]1C[C@@H](C)[C@H]2[C@H](O1)[C@H](O)[C@@]1(C)[C@@H]3CC[C@H]4C(C)(C)[C@@H](OC(=O)NC5CNC5)CC[C@@]45C[C@@]35CC[C@]21C)C(C)(C)O 7.33

Also CC(=O)O[C@@H]([C@@H]1C[C@@H](C)[C@H]2[C@H](O1)[C@H](O)[C@@]1(C)[C@@H]3CC[C@H]4C(C)(C)[C@@H](OC(=O)NCC(=O)O)CC[C@@]45C[C@@]35CC[C@]21C)C(C)(C)O , if possible. 5.60

What about CC(=O)O[C@@H]([C@@H]1C[C@@H](C)[C@H]2[C@H](O1)[C@H](O)[C@@]1(C)[C@@H]3CC[C@H]4C(C)(C)[C@@H](OC(=O)N5CCOCC5)CC[C@@]45C[C@@]35CC[C@]21C)C(C)(C)O ? 6.66

Subsequent entry: CC(=O)O[C@@H]([C@@H]1C[C@@H](C)[C@H]2[C@H](O1)[C@H](O)[C@@]1(C)[C@@H]3CC[C@H]4C(C)(C)[C@@H](OC(=O)[C@@H]5CCCN5)CC[C@@]45C[C@@]35CC[C@]21C)C(C)(C)O 6.64

Please give the result for CC(=O)O[C@@H]([C@@H]1C[C@@H](C)[C@H]2[C@H](O1)[C@H](O)[C@@]1(C)[C@@H]3CC[C@H]4C(C)(C)[C@@H](OC(=O)NCCN)CC[C@@]45C[C@@]35CC[C@]21C)C(C)(C)O too. 7.04

Moving on to CC(=O)O[C@@H]([C@@H]1C[C@@H](C)[C@H]2[C@H](O1)[C@H](O)[C@@]1(C)[C@@H]3CC[C@H]4C(C)(C)[C@@H](OC(=O)CN)CC[C@@]45C[C@@]35CC[C@]21C)C(C)(C)O 7.02

---

- Target desc: Gamma-secretase
- Method summary: Modulation of gamma-secretase (unknown origin) assessed as inhibition of amyloid beta 42 production
- Format: protein-complex assay, Homo sapiens
For each of the molecules below, state its pIC50.
Worth noting: pIC50 values are minus log10 of concentrations stated in mol/L.

Please state recorded pIC50 (tested on Gamma-secretase) of C[C@@H]1C[C@@H]([C@H](O)C(C)(C)O)O[C@H]2[C@H]1[C@@]1(C)CC[C@@]34C[C@@]35CC[C@H](O[C@@H]3OC[C@@H](O)[C@H](O)[C@H]3O)C(C)(C)[C@@H]5CC[C@H]4[C@]1(C)[C@H]2O 5.51

Try this molecule next: CC(=O)OC(C)(C)[C@H]1O[C@@]23O[C@H]1C[C@@H](C)C2[C@@]1(C)CC[C@@]24C[C@@]25CC[C@H](O[C@@H]2OC[C@@H](O)[C@H](O)[C@H]2O)C(C)(C)[C@@H]5CC[C@H]4[C@]1(C)[C@H]3O (some centres undefined) 5.52

Query CC(=O)O[C@@H]([C@@H]1C[C@@H](C)[C@H]2[C@H](O1)[C@H](O)[C@@]1(C)[C@@H]3CC[C@H]4C(C)(C)[C@@H](OC(=O)c5ccccn5)CC[C@@]45C[C@@]35CC[C@]21C)C(C)(C)O next 6.28

Please do the same for CC(=O)O[C@@H]([C@@H]1C[C@@H](C)[C@H]2[C@H](O1)[C@H](O)[C@@]1(C)[C@@H]3CC[C@H]4C(C)(C)[C@@H](O)CC[C@@]45C[C@@]35CC[C@]21C)C(C)(C)O as well. 6.22

Also CC(=O)O[C@@H]([C@@H]1C[C@@H](C)[C@H]2[C@H](O1)[C@H](O)[C@@]1(C)[C@@H]3CC[C@H]4C(C)(C)[C@@H](OC(=O)Cc5ccccn5)CC[C@@]45C[C@@]35CC[C@]21C)C(C)(C)O ? 6.11

Item: CC(=O)O[C@@H]([C@@H]1C[C@@H](C)[C@H]2[C@H](O1)[C@H](O)[C@@]1(C)[C@@H]3CC[C@H]4C(C)(C)[C@@H](OC(=O)NC5CN6CCC5CC6)CC[C@@]45C[C@@]35CC[C@]21C)C(C)(C)O (some centres undefined) 7.08

Same question, CC(=O)O[C@@H]([C@@H]1C[C@@H](C)[C@H]2[C@H](O1)[C@H](O)[C@@]1(C)[C@@H]3CC[C@H]4C(C)(C)[C@@H](OC(=O)NCCN(C)C)CC[C@@]45C[C@@]35CC[C@]21C)C(C)(C)O this time 6.44

Another molecule: CC(=O)O[C@@H]([C@@H]1C[C@@H](C)[C@H]2[C@H](O1)[C@H](O)[C@@]1(C)[C@@H]3CC[C@H]4C(C)(C)[C@@H](OC(=O)CCC(=O)O)CC[C@@]45C[C@@]35CC[C@]21C)C(C)(C)O 5.80

Same question for CC(=O)O[C@@H]([C@@H]1C[C@@H](C)[C@H]2[C@H](O1)[C@H](O)[C@@]1(C)[C@@H]3CC[C@H]4C(C)(C)[C@@H](OC(=O)C5(C)COC5)CC[C@@]45C[C@@]35CC[C@]21C)C(C)(C)O please. 6.23
